Values compiled from the supplement of paper PMC4862054.

- Test system: CAL-148
- TEST: normalised response (% of control), CellTiter-Glo; higher = more viable cells (100 = DMSO, 0 = benzethonium chloride kill control)
- APPLIED CONDITIONS: incubation time: 72 h
QUANTITY MEASURED: normalised response (%)
The figure you give is taken to be in %; do not add the unit.

Q) Please give the measured normalised response for this molecule: CN1CCN(c2ccc3nc(-c4c(N)c5c(F)cccc5[nH]c4=O)[nH]c3c2)CC1 [Dovitinib] (10 nM)
A) 94.9

Q) Which value of normalised response has been reported for COC(=O)C[C@](O)(CCCC(C)(C)O)C(=O)O[C@@H]1C(OC)=C[C@]23CCCN2CCc2cc4c(cc2[C@H]13)OCO4 [Omacetaxine] (1000 nM) in the records?
A) 32

Q) Item COC1=CC(c2cc3ccccc3[nH]2)=N/C1=C\c1[nH]c(C)cc1C [Obatoclax] (10 nM) has what recorded normalised response?
A) 89.9

Q) Given the entry CC(=O)O[C@H]1C(=O)[C@@]2(C)[C@H]([C@H](OC(=O)c3ccccc3)[C@]3(O)C[C@H](OC(=O)[C@H](O)[C@@H](NC(=O)c4ccccc4)c4ccccc4)C(C)=C1C3(C)C)[C@]1(OC(C)=O)CO[C@@H]1C[C@@H]2O [Paclitaxel] (0.1 nM) , report its measured normalised response.
A) 89.6

Q) Value lookup for normalised response; key = CS(=O)(=O)CCNCc1ccc(-c2ccc3ncnc(Nc4ccc(OCc5cccc(F)c5)c(Cl)c4)c3c2)o1 [Lapatinib] (0.1 nM)
A) 110

Q) Value lookup for normalised response; key = CCS(=O)(=O)c1cccc(-c2cc(C(=O)NC3CCN(C)CC3)c(C)c3[nH]c4ncc(C)cc4c23)c1 [TAK-901] (100 nM)
A) 45.6

Q) Form field: reported normalised response of CCOc1cc2ncc(C#N)c(Nc3ccc(OCc4ccccn4)c(Cl)c3)c2cc1NC(=O)/C=C/CN(C)C [Neratinib] (100 nM)
A) 83.4

Q) So what's the measured normalised response for this one? COC1=CC(c2cc3ccccc3[nH]2)=N/C1=C\c1[nH]c(C)cc1C [Obatoclax] (1000 nM)
A) 81.5

Q) Entry under review: CS(=O)(=O)CCNCc1ccc(-c2ccc3ncnc(Nc4ccc(OCc5cccc(F)c5)c(Cl)c4)c3c2)o1 [Lapatinib] (1 nM) . Reported normalised response?
A) 110

Q) Fill in the blank: the reported normalised response of O=C(c1ccc(OCCN2CCCCC2)cc1)c1c(-c2ccc(O)cc2)sc2cc(O)ccc12 [Raloxifene] (10 nM) is ____.
A) 106

Q) normalised response lookup needed for COc1ccc(C2=N[C@@H](c3ccc(Cl)cc3)[C@@H](c3ccc(Cl)cc3)N2C(=O)N2CCNC(=O)C2)c(OC(C)C)c1 [Nutlin-3] (1000 nM) , thanks.
A) 101

Q) Name the reported normalised response value associated with the molecule COc1c(C)cnc(Cn2cnc3c(Cl)nc(N)nc32)c1C [BIIB021] (10 nM)
A) 94.6

Q) Could you tell me which normalised response is on file for CC(C)(C)c1cc(NC(=O)Nc2ccc(-c3cn4c(n3)sc3cc(OCCN5CCOCC5)ccc34)cc2)no1 [Quizartinib] (1 nM) ?
A) 109

Q) Any idea what normalised response was measured for CCOc1cc2ncc(C#N)c(Nc3ccc(OCc4ccccn4)c(Cl)c3)c2cc1NC(=O)/C=C/CN(C)C [Neratinib] (0.1 nM) ?
A) 105

Q) So what does the record say about normalised response for COc1cccc2c1C(=O)c1c(O)c3c(c(O)c1C2=O)C[C@@](O)(C(C)=O)C[C@@H]3O[C@H]1C[C@H](N)[C@H](O)[C@H](C)O1 [Daunorubicin] (1 nM) ?
A) 109

Q) Looking for the measured normalised response of O=C(c1ccc(OCCN2CCCCC2)cc1)c1c(-c2ccc(O)cc2)sc2cc(O)ccc12 [Raloxifene] (1000 nM) , can you help?
A) 103

Q) # normalised response lookup, item Cn1cnc2c(F)c(Nc3ccc(Br)cc3F)c(C(=O)NOCCO)cc21 [MEK-162] (1 nM)
A) 102

Q) normalised response lookup needed for CCCC(CCC)C(=O)O [Valproic acid] (1000 nM) , thanks.
A) 96.2

Q) normalised response lookup needed for COc1cc(Nc2ncc(F)c(Nc3ccc4c(n3)NC(=O)C(C)(C)O4)n2)cc(OC)c1OC [Tamatinib] (1 nM) , thanks.
A) 102

Q) Field request: normalised response | item: C[C@@H]1C=C2C(=O)O[C@@H]3CC[C@H](C1)[C@]23O [Galiellalactone] (5000 nM)
A) 110
